The values you see were collected from ChEMBL document CHEMBL4145598.

System: Staphylococcus aureus
Assay: Antimicrobial activity against methicillin-resistant Staphylococcus aureus ATCC-BAA-1708 after 18 hrs by agar dilution assay
Format: functional
Conditions: ATCC-BAA-1708, 18 h
Recorded Metric: MIC

Some solved entries appear below for comparison.
[[record]]
smiles_input = "COc1ccc2c(c[n+]3c4c2ccc2c5c(cc(c24)CC3)OCO5)c1NC(=O)C12CC3CC(CC(C3)C1)C2.[Cl-]"
value_reported = "> 64 µg/mL"

[[record]]
smiles_input = "COc1ccc2c(c[n+]3c4c2ccc2c5c(cc(c24)CC3)OCO5)c1OCC(=O)c1ccc(C(F)(F)F)cc1.[Br-]"
value_reported = "> 64 µg/mL"


Next:
# return MIC for COc1ccc2c(c[n+]3c4c2ccc2c5c(cc(c24)CC3)OCO5)c1NCc1ccco1.[Cl-] , test system: Staphylococcus aureus
> 64 µg/mL

* * *

System: Staphylococcus aureus
Experiment: Antimicrobial activity against methicillin-resistant Staphylococcus aureus isolate 12-16 after 18 hrs by agar dilution assay
Format: functional
Conditions: isolate 12-16, 18 h
Recorded Metric: MIC

Some solved entries appear below for comparison.
[[record]]
smiles_input = "COc1ccc2c(c[n+]3c4c2ccc2c5c(cc(c24)CC3)OCO5)c1OCC(=O)c1ccc(C(F)(F)F)cc1.[Br-]"
value_reported = "> 64 µg/mL"

[[record]]
smiles_input = "CCC(=O)COc1c(OC)ccc2c1c[n+]1c3c2ccc2c4c(cc(c23)CC1)OCO4.[Br-]"
value_reported = "> 64 µg/mL"


Next:
// fetch MIC given entry COc1ccc2c(c[n+]3c4c2ccc2c5c(cc(c24)CC3)OCO5)c1NC(=O)c1c(C)noc1C.[Cl-]
> 64 µg/mL
